Data origin, for the record: paper PMC8521653

Target: purified recombinant porcine PREP (Sus scrofa, UniProt P23687)
Construct: made in house; host or cells: E. coli
Sequence (P23687 whole entry): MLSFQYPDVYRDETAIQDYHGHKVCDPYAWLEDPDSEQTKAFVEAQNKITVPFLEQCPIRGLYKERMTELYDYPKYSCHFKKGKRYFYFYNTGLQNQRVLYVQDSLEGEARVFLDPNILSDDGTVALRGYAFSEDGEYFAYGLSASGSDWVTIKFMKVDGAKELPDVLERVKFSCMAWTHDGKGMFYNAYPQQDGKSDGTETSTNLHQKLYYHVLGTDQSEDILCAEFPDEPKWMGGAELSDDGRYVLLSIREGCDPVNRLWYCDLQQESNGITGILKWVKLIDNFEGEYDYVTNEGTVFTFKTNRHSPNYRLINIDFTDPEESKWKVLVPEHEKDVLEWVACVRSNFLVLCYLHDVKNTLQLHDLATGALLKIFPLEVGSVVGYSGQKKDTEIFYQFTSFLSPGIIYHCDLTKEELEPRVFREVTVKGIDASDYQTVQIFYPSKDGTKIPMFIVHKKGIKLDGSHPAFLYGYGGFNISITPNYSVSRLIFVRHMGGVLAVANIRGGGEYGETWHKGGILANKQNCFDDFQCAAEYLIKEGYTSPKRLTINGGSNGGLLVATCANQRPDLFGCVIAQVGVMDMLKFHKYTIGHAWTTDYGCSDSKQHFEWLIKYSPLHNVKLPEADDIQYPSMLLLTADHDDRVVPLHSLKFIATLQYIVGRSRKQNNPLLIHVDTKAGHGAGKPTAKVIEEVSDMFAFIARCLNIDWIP
Assay: Inhibition of the proteolytic activity of PREP, microplate assay with Suc-Gly-Pro-AMC substrate
Type: biochemical
Details: recombinant porcine PREP, Suc-Gly-Pro-AMC, 30 °C, pH 7.0; 95% CI in brackets
experimental endpoint: IC50 (nM)

compound | experimental endpoint | result unit | inequality symbol | data value
O=C(CCCc1ccccc1)N1CCC[C@H]1C(=O)N1CCC[C@H]1c1cnn[nH]1 [Compound 25a] | IC50 | nM | = | 1100
O=C(CCCc1ccccc1)N1CCC[C@H]1C(=O)N1CCC[C@H]1c1cnc[nH]1 [Compound 29a] | IC50 | nM | = | 44
O=C(CCc1ccccc1)N1CCC[C@H]1C(=O)N1CCC[C@H]1c1ncc[nH]1 [Compound 26a] | IC50 | nM | < | 1
O=C(CCCc1cccs1)N1CCC[C@H]1C(=O)N1CCC[C@H]1c1nnn[nH]1 [Compound 17a] | IC50 | nM | = | 94
O=C(CCCc1ccccc1)N1CCC[C@H]1C(=O)N1CCC[C@H]1c1ncc[nH]1 [Compound 27a] | IC50 | nM | < | 1
C[C@H](NC(=O)CCc1ccccc1)C(=O)N1CCC[C@H]1c1nnn[nH]1 [Compound 15b] | IC50 | nM | = | 3900
